Data credit: ChEMBL document CHEMBL1157539

Tested on: Plasmodium falciparum
Assay: GSK_TCMDC: Inhibition of Plasmodium falciparum 3D7 in whole erythrocytes, using parasite LDH activity as an index of growth.
Assay type: functional, organism-based
Details: Plasmodium falciparum, 3D7
In this section, each of the compounds is paired with its reported XC50.

| COMPOUND | XC50, nM |
| --- | --- |
| CCC1=C[C@@H]2CN(C1)Cc1c([nH]c3ccccc13)[C@@](C(=O)OC)(c1cc3c(cc1OC)N(C)[C@H]1[C@@](O)(C(=O)OC)[C@H](O)[C@]4(CC)C=CCN5CC[C@]31[C@@H]54)C2 | 866 |
| COCCNCc1ncsc1-c1ccc2c(Nc3ccc(Oc4ccccc4)cc3)ccnc2c1 | 905 |
| CCOc1c(OC)ccc2c1CCN(CCN1CCC(CNC(=O)c3ccc(-c4ccc(C#N)cc4)cc3)CC1)C2 | 1080 |
| COc1ccc(Cl)cc1N1CCN(CCCNC(=O)c2ccc(-c3nc4cc(Cl)c(F)cc4[nH]3)s2)CC1 | 314 |
| Cc1cc(N[C@@H](Cc2ccccc2)C(=O)NC2CCCC2)nc(Nc2ccccc2)n1 | 828 |
| O=c1c2ccccc2[nH]c2nc3ccccc3c(Nc3ccccc3)c12 | 141 |
| Cc1cccc2nc(-c3ccc(-c4ccc(C(=O)NCCN5CCCC5)cc4)cc3)[nH]c12 | 519 |
| N=C(N)NN=Cc1c2ccccc2c(Cl)c2c(Cl)cccc12 | 878 |
| CN1CCN(Cc2ccc(-c3ccc4ncnc(Nc5ccc(OCc6ccccc6)cc5)c4c3)o2)CC1 | 689 |
| Cc1noc(C)c1-c1cccc(CNCc2cccc(-c3ccc(-c4nc5cc(C(F)(F)F)ccc5[nH]4)s3)c2)c1 | 166 |
| CC(C)Oc1ccccc1-c1csc(C(=O)NCC2CCN(Cc3ccc(C(C)(C)C)cc3)C2)c1 (configuration not stated) | 1070 |
| CC(C)C(=O)NC(Nc1ccc([N+](=O)[O-])cc1)C(Cl)(Cl)Cl (configuration not stated) | 835 |
| Cc1ccc(S(=O)(=O)N(CCCN2CCN(C)CC2)Cc2csc(-c3ccc(CNCc4ccccc4)cc3)n2)cc1 | 841 |
| CCCCOC(=O)[C@H](CCC)NC(=O)c1ccc(NS(=O)(=O)c2ccc3nc(N)[nH]c(=O)c3c2)cc1 | 198 |
| O=c1ccc(CNc2nc(NCCc3ccccc3)nc3ccc(Cl)cc23)c[nH]1 | 783 |
| Cc1ccccc1Cn1c(CN2CCC(C(=O)NC3CC3)CC2)cc2ccccc21 | 477 |
| O=C(Nc1ccc(-c2nc3ccccc3[nH]2)cc1)c1ccc(-c2cccc([N+](=O)[O-])c2)o1 | 267 |
| CCOC(=O)N1CCN(CCCCCNc2cc(C)nc(NC(=N)Nc3ccc(Cl)cc3)n2)CC1 | 149 |
| Cc1ccc(NC(=O)NC2CCN(c3ccnc4ccccc34)CC2)cc1 | 790 |
| Cc1cc(NCCC(=O)NCCOc2ccccc2)nc(Nc2ccccc2)n1 | 1060 |
| Cc1ccccc1C1CCN(C2CCC(NC(=O)c3ccc(-c4cc(C(F)(F)F)nn4C)s3)CC2)CC1 (configuration not stated) | 846 |
| O=C(c1cc(C(=O)Nc2ccc(F)cc2)c(=O)n(-c2ccc(F)cc2)c1)c1cc(Cl)ccc1O | 219 |
| Cc1cccc2nc(-c3ccc(-c4ccc(CNCc5cccc(N)c5)cc4)cc3)[nH]c12 | 565 |
| CCOc1c(Br)cc(Br)cc1CNCCCCNc1nc2ccccc2[nH]1 | 394 |
| Cc1cccc2nc(-c3cccc(-c4ccc(CNCCCN5CCCC5=O)cc4)c3)[nH]c12 | 956 |
| Cn1nc(-c2cccc(CNC3CCc4ccccc43)c2)c2cnc(NCCCN3CCCC3)nc21 (configuration not stated) | 877 |
| COc1ccc(-c2nccc(NC(=N)NCc3ccccc3)n2)cc1 | 671 |
| CN1CCCC(CN2CCN(Cc3ccc(-c4cccc(-c5nc6ccccc6[nH]5)c4)cc3)CC2)C1 (configuration not stated) | 132 |
| c1cncc(CN2CCN(Cc3ccc(-c4ccc(-c5nc6ccccc6[nH]5)s4)cc3)CC2)c1 | 938 |
| CN(C)CCCn1c(C(=O)OC(c2ccccc2)c2ccccc2)cc2cc(OCc3ccccc3)ccc21 | 201 |
| O=C(Nc1ccc(C(F)(F)F)cc1)c1cc(Br)cnc1NCCCn1ccnc1 | 968 |
| O=C(/C=C/c1ccc(Cl)c(Cl)c1)NCCCCCN1CCC(NC(=S)Nc2cccc(Cl)c2)CC1 | 873 |
| NCCCCc1c(-c2ccc(Cl)c(Cl)c2)[nH]c2ccc(Cl)cc12 | 912 |
| CCCNC(=O)c1ccnc(-c2ccc(CNC3Cc4ccccc4C3)cc2)c1 | 940 |
| CN1CCc2cc(I)c(O)cc2C1Cc1ccccc1Cl (configuration not stated) | 788 |
| CC1CCC2(CC1)N=C(N)N=C(N)N2OCc1cc2ccccc2c2ccccc12 (configuration not stated) | 243 |
| Cc1cc(C=C(P(=O)(OC(C)C)OC(C)C)P(=O)(OC(C)C)OC(C)C)c2ccccc2c1O | 1080 |
